Every entry's value here was drawn from the supplement of paper PMC10567573.

B1: PTPN9 (parent)
chain: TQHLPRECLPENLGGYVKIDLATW

variants of: B1; experiment: protein stability index of a GFP-peptide fusion (GPS, HEK-293T) (PSI 1-6); higher = more stable; conditions: c terminus: a fixed tail appended;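 further: lentivirally expressed fusions sorted by FACS into six bins by GFP to DsRed ratio, PSI derived from sequencing read proportions per bin multiplied by bin number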
Classification field: 1 = protein stability index at or over 2; -1 = protein stability index under 2.

Observe how each entry below is paired with its result.
| MUTANT DESIGNATION | CLASS NAME |
| --- | --- |
| G14C | -1 |
| N12R | -1 |
| E11W | -1 |

Let us examine a further case.
Exam item: Item P5C with protein stability index of 2 or above?
Marked response: -1
